experiment: Pharmacokinetics of JHG components in control rats after intragastric administration of JHGs (plasma, Orbitrap Fusion MS); type: in vivo, Sprague Dawley (SD) rats; details: JHGs low dose 5.70 g/kg/d
Attribute: log10 Clearances
Form field - Quantity: Clearances; Unit: mL/min/kg; Scale: log10

Use the examples below as a reference point.
[[record]]
compound = "COc1cc(O)c2c(c1)oc(=O)c1c3cc(O)c(O)cc3oc21 [Wedelolactone]"
measvalue = -1.30

[[record]]
compound = "COc1ccc(-c2cc(=O)c3c(OC)c(OC)c(OC)c(OC)c3o2)cc1OC [Nobiletin]"
measvalue = 2.43

[[record]]
compound = "CC1CCC2N(C1)CC1C3CC4C(CC(=O)C5CC(O)CCC54C)C3CCC1C2(C)O (stereo not drawn) [Peiminine]"
measvalue = 1.66

[[record]]
compound = "O=c1cc(-c2ccc(O)c(O)c2)oc2cc(O[C@@H]3O[C@H](CO)[C@@H](O)[C@H](O)[C@H]3O)cc(O)c12 [Cynaroside]"
measvalue = 0.00

[[record]]
compound = "CC1=C2CC3C(CC(=O)C4CC(O)CCC43C)C2CCC12OC1CC(C)CNC1C2C (stereo not drawn) [Peimisine]"
measvalue = 0.40


Task: Please report log10 Clearances for the following compound: CC1CCC2N(C1)CC1C3CC4C(CC(O)C5CC(O)CCC54C)C3CCC1C2(C)O (stereo not drawn) [Peimine]
Output: 1.49

Task: Please report log10 Clearances for the following compound: C[C@@H]1O[C@@H](O[C@@H]2[C@@H](O)[C@H](OCCc3ccc(O)c(O)c3)O[C@H](COC(=O)/C=C/c3ccc(O)c(O)c3)[C@H]2O)[C@H](O)[C@H](O)[C@H]1O [Isoacteoside]
Output: 1.18

Task: Please report log10 Clearances for the following compound: O=c1cc(-c2ccc(O)cc2)oc2cc(OC3OC(CO)C(O)C(O)C3O)cc(O)c12 (stereo not drawn) [Apigenin-7-glucoside]
Output: 0.52

Task: Please report log10 Clearances for the following compound: COc1ccc(C(C)=O)c(O)c1 [Paeonol]
Output: 3.20

====

experiment: Pharmacokinetics of JHG components in control rats after intragastric administration of JHGs (plasma, Orbitrap Fusion MS); type: in vivo, Sprague Dawley (SD) rats; conditions: male, Sprague Dawley, rat, plasma, po, 22.81 g/kg/day, JHGs high dose 22.81 g/kg/d, read-out: Tmax
measurementLabel: Tmax

Use the examples below as a reference point.
[[record]]
compound = "COc1cc(O)c2c(c1)oc(=O)c1c3cc(O)c(O)cc3oc21"
measurementlabel = "Tmax"
measvalue = "1.83 h"

[[record]]
compound = "COc1ccc(C(C)=O)c(O)c1"
measurementlabel = "Tmax"
measvalue = "2 h"

[[record]]
compound = "CC1CCC2N(C1)CC1C3CC4C(CC(=O)C5CC(O)CCC54C)C3CCC1C2(C)O (stereo not drawn)"
measurementlabel = "Tmax"
measvalue = "3 h"

[[record]]
compound = "COc1ccc(-c2cc(=O)c3c(OC)c(OC)c(OC)c(OC)c3o2)cc1OC"
measurementlabel = "Tmax"
measvalue = "0.75 h"

[[record]]
compound = "CC1=C2CC3C(CC(=O)C4CC(O)CCC43C)C2CCC12OC1CC(C)CNC1C2C (stereo not drawn)"
measurementlabel = "Tmax"
measvalue = "8 h"


Task: Please report Tmax for the following compound: C[C@@H]1O[C@@H](O[C@@H]2[C@@H](O)[C@H](OCCc3ccc(O)c(O)c3)O[C@H](COC(=O)/C=C/c3ccc(O)c(O)c3)[C@H]2O)[C@H](O)[C@H](O)[C@H]1O [Isoacteoside]
Output: 3 h

Task: Please report Tmax for the following compound: CC1CCC2N(C1)CC1C3CC4C(CC(O)C5CC(O)CCC54C)C3CCC1C2(C)O (stereo not drawn)
Output: 2.67 h

Task: Please report Tmax for the following compound: O=c1cc(-c2ccc(O)c(O)c2)oc2cc(O[C@@H]3O[C@H](CO)[C@@H](O)[C@H](O)[C@H]3O)cc(O)c12 [Cynaroside]
Output: 6 h

Task: Please report Tmax for the following compound: O=c1cc(-c2ccc(O)cc2)oc2cc(OC3OC(CO)C(O)C(O)C3O)cc(O)c12 (stereo not drawn) [Apigenin-7-glucoside]
Output: 1.67 h

====

assay: Pharmacokinetics of JHG components in control rats after intragastric administration of JHGs (plasma, Orbitrap Fusion MS); format: in vivo, Sprague Dawley (SD) rats; details: male, Sprague Dawley, rat, plasma, po, 5.7 g/kg/day, JHGs low dose 5.70 g/kg/d, read-out: MRT(0-∞)
Attribute: MRT inf
Value expressed in h; do not type the unit.

Use the examples below as a reference point.
[[record]]
compound = "COc1ccc(-c2cc(=O)c3c(OC)c(OC)c(OC)c(OC)c3o2)cc1OC"
measurementlabel = "MRT inf"
measvalue = 17.8

[[record]]
compound = "COc1cc(O)c2c(c1)oc(=O)c1c3cc(O)c(O)cc3oc21"
measurementlabel = "MRT inf"
measvalue = 14

[[record]]
compound = "CC1=C2CC3C(CC(=O)C4CC(O)CCC43C)C2CCC12OC1CC(C)CNC1C2C (centres unmarked)"
measurementlabel = "MRT inf"
measvalue = 22.8

[[record]]
compound = "O=c1cc(-c2ccc(O)c(O)c2)oc2cc(O[C@@H]3O[C@H](CO)[C@@H](O)[C@H](O)[C@H]3O)cc(O)c12 [Cynaroside]"
measurementlabel = "MRT inf"
measvalue = 9.56


Next compound, MRT inf to be filled in.
Task: Please report MRT inf for the following compound: CC1CCC2N(C1)CC1C3CC4C(CC(O)C5CC(O)CCC54C)C3CCC1C2(C)O (centres unmarked)
Output: 75.3

====

Attribute: Cmax
test: Pharmacokinetics of JHG components in pulmonary fibrosis (PF) model rats after intragastric administration of JHGs (plasma, Orbitrap Fusion MS); format: in vivo, Sprague Dawley (SD) rats; settings: male, Sprague Dawley, rat, plasma, po, 11.41 g/kg/day; PF model rats, intragastric JHGs, medium dose 11.41 g/kg/d, n=6 (2nd of 3 stacked values)
Value expressed in ng/mL; do not type the unit.

Use the examples below as a reference point.
[[record]]
compound = "CC1=C2CC3C(CC(=O)C4CC(O)CCC43C)C2CCC12OC1CC(C)CNC1C2C (stereo not drawn)"
measvalue = 2.51

[[record]]
compound = "COc1ccc(-c2cc(=O)c3c(OC)c(OC)c(OC)c(OC)c3o2)cc1OC"
measvalue = 3.37


Next compound, Cmax to be filled in.
Task: Please report Cmax for the following compound: COc1ccc(C(C)=O)c(O)c1
Output: 3.16

====

Experiment: Pharmacokinetics of JHG components in pulmonary fibrosis (PF) model rats after intragastric administration of JHGs (plasma, Orbitrap Fusion MS)
Assay type: in vivo, Sprague Dawley (SD) rats
Details: male, Sprague-Dawley, rat, plasma, po, 22.81 g/kg/day; PF model rats, intragastric JHGs, high dose 22.81 g/kg/d, n=6 (3rd of 3 stacked values)
Protocol: Healthy male Sprague Dawley (SD) rats of SPF grade (240 ± 20 g) were purchased from Sipeifu (Beijing, China) Biotechnology Co., Ltd. (Beijing, China), Certificate of Conformity No.: SCYK (Beijing, China) 2019-0015, Animal Quality Certificate No.: 110324220102348616. They were housed in the Animal Center of Henan University of Traditional Chinese Medicine, which passed the ethical audit, ethics number: DWLL202208003, breeding Co. 24 °C, relative humidity 50 ± 2%. […]
Attribute: Cmax
Value expressed in ng/mL; do not type the unit.

[[record]]
molecule = "CC1=C2CC3C(CC(=O)C4CC(O)CCC43C)C2CCC12OC1CC(C)CNC1C2C (stereo not drawn)"
measvalue = 2.76

[[record]]
molecule = "COc1ccc(-c2cc(=O)c3c(OC)c(OC)c(OC)c(OC)c3o2)cc1OC"
measvalue = 3.57


Task: Please report Cmax for the following molecule: COc1ccc(C(C)=O)c(O)c1
Output: 3.63

====

experiment: Pharmacokinetics of JHG components in control rats after intragastric administration of JHGs (plasma, Orbitrap Fusion MS); format: in vivo, Sprague Dawley (SD) rats; conditions: male, Sprague Dawley, rat, plasma, po, 5.7 g/kg/day, JHGs low dose 5.70 g/kg/d, read-out: Tmax
Attribute: Tmax
Value expressed in h; do not type the unit.

[[record]]
compound = "O=c1cc(-c2ccc(O)cc2)oc2cc(OC3OC(CO)C(O)C(O)C3O)cc(O)c12 (stereo not drawn) [Apigenin-7-glucoside]"
measurementunit = "h"
measvalue = 1.83

[[record]]
compound = "COc1ccc(C(C)=O)c(O)c1"
measurementunit = "h"
measvalue = 0.75

[[record]]
compound = "CC1CCC2N(C1)CC1C3CC4C(CC(O)C5CC(O)CCC54C)C3CCC1C2(C)O (stereo not drawn)"
measurementunit = "h"
measvalue = 4

[[record]]
compound = "CC1CCC2N(C1)CC1C3CC4C(CC(=O)C5CC(O)CCC54C)C3CCC1C2(C)O (stereo not drawn)"
measurementunit = "h"
measvalue = 4.67


Task: Please report Tmax for the following compound: C[C@@H]1O[C@@H](O[C@@H]2[C@@H](O)[C@H](OCCc3ccc(O)c(O)c3)O[C@H](COC(=O)/C=C/c3ccc(O)c(O)c3)[C@H]2O)[C@H](O)[C@H](O)[C@H]1O [Isoacteoside]
Output: 1

Task: Please report Tmax for the following compound: COc1ccc(-c2cc(=O)c3c(OC)c(OC)c(OC)c(OC)c3o2)cc1OC
Output: 0.75
